The measurements presented in this section are drawn from PubChem BioAssay (NCI).

// reported TGI for each item listed
# Test system: U251 CNS
# procedureText: NCI tumour cell line growth inhibition, 48 h

# input So what does the record say about TGI for Cc1sc2nc3n(c(=O)c2c1C)N=CN(c1ccc(F)cc1)C3 ?
# output > 100 µM

# input So what does the record say about TGI for O=c1c2ccccc2nc(N/N=C/c2ccccc2O)n1-c1ccccc1 ?
# output > 100 µM

# input So what does the record say about TGI for Cc1c([N+](=O)[O-])oc2ccc3ccccc3c12 ?
# output > 100 µM

----------
// reported TGI for each item listed
# System: UO-31 renal
# procedureText: NCI tumour cell line growth inhibition, 48 h

COc1ccc(C[C@H](N)C(=O)N2C[C@@H](CO)C[C@@H](n3ccc(=O)[nH]c3=O)C2)cc1 : > 100 µM
N.N.O=P([O-])([O-])C1(P(=O)([O-])[O-])CCCCCN1.[Pt+2] : > 100 µM
COc1cc(-c2csc(NC(=O)Nc3cc(Cl)cc(Cl)c3)n2)cc(OC)c1OC : 3.3 µM
Cc1cn(S(=O)(=O)c2ccccc2)c2c(OCc3ccccc3)cc(NS(C)(=O)=O)cc12 : > 100 µM

We next turn to a different molecule, shown below.
# input So what does the record say about TGI for CC(O)c1cc(C(=O)N[C@@H](C)Cn2ccc(-c3ccc(C#N)c(Cl)c3)n2)n[nH]1 (stereo not given in full) ?
# output > 100 µM

----------
// reported TGI for each item listed
# System: HL-60(TB) leukemia
# procedureText: NCI tumour cell line growth inhibition, 48 h
Write the answer as a number in µM, unit excluded.

Cc1ccc([C@]2(C)CC[C@H](C)/C2=C\Br)c(O)c1 : 12.6

We next turn to a different molecule, shown below.
# input So what does the record say about TGI for CC(C)(C)[Si](C)(C)OCC1OC(n2cnc3c(=O)[nH]c(N)nc32)C(O[Si](C)(C)C(C)(C)C)C1O[Si](C)(C)C(C)(C)C (stereo not given) ?
# output 2.34

----------
// reported TGI for each item listed
# System: HOP-92 NSCLC
# procedureText: NCI tumour cell line growth inhibition, 48 h

Some molecules with known TGI results, for comparison:
N.N.O=P([O-])([O-])C1(P(=O)([O-])[O-])CCCCCN1.[Pt+2] : > 100 µM
Cn1cc(C2=C(N3CCOCC3)C(=O)NC2=O)c2ccccc21 : > 25 µM

# input So what does the record say about TGI for COC(=O)c1nn(C(=N)c2ccc(Cl)cc2)c2c1CCC2 ?
# output > 100 µM

----------
# System: A549 NSCLC
# procedureText: NCI tumour cell line growth inhibition, 48 h; in the data active = GI50 below about 0.43 µM; inactive = the rest
// allowed return values: true (1) for active, false (0) for inactive

A selection of reference data follows.
CC(O)c1cc(C(=O)N[C@@H](C)Cn2ccc(-c3ccc(C#N)c(Cl)c3)n2)n[nH]1 (some centres not stated) : false (0)
O=C(NC(=S)Nc1cc(Cl)ccc1O)c1cccc(Br)c1 : false (0)
Cc1nc2ccccc2c(/C=C/c2ccc(Cl)cc2)c1C(=O)/C=C/c1ccccc1 : false (0)
C[C@@H]1COCCN1c1cc(C2(O)C[C@H]3CC[C@@H](C2)O3)c2cnn(-c3ccn[nH]3)c2n1 (some centres not stated) : true (1)
COc1cc(-c2csc(NC(=O)Nc3cc(Cl)cc(Cl)c3)n2)cc(OC)c1OC : false (0)

# input Query: recorded result category for N#CC1C=Cc2c(ccc3ccccc23)N1C(=O)c1ccccc1 (configuration not stated) in this test
# output true (1)

# input Query: recorded result category for O=C(c1ccccc1)c1c(C(F)(F)F)n([O-])c2ccc(C(F)(F)F)cc2[n+]1=O in this test
# output true (1)
